- System under test: T1, human epidermal growth factor receptor (EGFR) (human, UniProt P00533 25-1210)
- T1 construct: whole, on cells; also called HER-1; ErbB1
- Protocol details: flow cytometry on A431 cells, light chain paired with I-HHD
Attribute measured: binding result

INSERT INTO results (binder, result) VALUES
  ('humanized ICR62 antibody I-HHD/I-KC4 (antibody, human IgG1, V domains shown) VH: QVQLVQSGAEVKKPGSSVKVSCKASGFTFTDYKIHWVRQAPGQGLEWMGYFNPNSGYSTYAQKFQGRVTITADKSTSTAYMELSSLRSEDTAVYYCARLSPGGYYVMDAWGQGTTVTVSS VL: DIQMTQSPSSLSASVGDRVTITCRASQGINNYLNWYQQKPGKAPKRLIYTTNNLQTGVPSRFSGSGSGTEFTLTISSLQPEDFATYYCLQHNSFPTFGQGTKLEIKR', 'binds'),
  ('humanized ICR62 antibody I-HHD/I-KC9 (antibody, human IgG1, V domains shown) VH: QVQLVQSGAEVKKPGSSVKVSCKASGFTFTDYKIHWVRQAPGQGLEWMGYFNPNSGYSTYAQKFQGRVTITADKSTSTAYMELSSLRSEDTAVYYCARLSPGGYYVMDAWGQGTTVTVSS VL: DIQMTQSPSSLSASVGDRVTITCRASQGINNYLNWYQQKPGKAPKRLIYNTNNLQTGVPSRFSGSGSGTEFTLTISSLQPEDFATYYCLQHNSYPTFGQGTKLEIKR', 'binds'),
  ('humanized ICR62 antibody I-HHD/I-KC6 (antibody, human IgG1, V domains shown) VH: QVQLVQSGAEVKKPGSSVKVSCKASGFTFTDYKIHWVRQAPGQGLEWMGYFNPNSGYSTYAQKFQGRVTITADKSTSTAYMELSSLRSEDTAVYYCARLSPGGYYVMDAWGQGTTVTVSS VL: DIQMTQSPSSLSASVGDRVTITCRASQGINNYLNWYQQKPGKAPKRLIYNTSNLQTGVPSRFSGSGSGTEFTLTISSLQPEDFATYYCLQHNSFPTFGQGTKLEIKR', 'binds');
